Item-by-item account of melting point

# melting point (compound: COc1ccc(C2CCCCC2)cc1-c1csc(NC(=O)N2CCN(C3CCN(S(=O)(=O)C4CC4)CC3)CC2)n1 ) is 138 °C

# melting point (compound: O=Cc1ccc2ccn(C3CCN(CCc4ccccc4F)CC3)c2c1 ) is 130 to 131 °C

# melting point (compound: COc1ccc(Nc2c(C#N)cnc3cc(OC)c(OC)cc23)cc1O ) is 254 to 256 °C

# melting point (compound: Cc1nc(C)n(-c2cc([C@@H]3C[C@H]3c3nc4ccccc4n3C)nc(C3CC3)n2)n1 (relative stereo) ) is 180 to 182 °C

# melting point (compound: CC1(C)CCC(Cc2ccc(Cl)cc2)C1(O)Cn1ncnc1S (centres undefined) ) is 179 to 180 °C

# melting point (compound: CC(C)(C)c1cc(C(=O)N2CCN(c3ccc(N)cc3)CC2)cc(C(C)(C)C)c1O ) is 221 to 222 °C

# melting point (compound: CSCc1cc(=O)c2ccc(OCc3ccccc3)c(C)c2o1 ) is 110 to 114 °C

# melting point (compound: COc1cc(S(C)(=O)=O)c(C)cc1OCC(=O)NCC(O)COc1ccccc1 (centres undefined) ) is 103 to 105 °C

# melting point (compound: CC1=NC(NC(=O)Nc2cc(C)ccn2)C(=O)N(CC(=O)N2CC3CCC(CC3)C2)c2c(C)cccc21 (centres undefined) ) is 152 to 154 °C

# melting point (compound: COC(=O)CCC(=O)OCc1cc(CCCCCOc2c(Cl)cc(C3=NCCO3)cc2Cl)on1 ) is 39 to 41 °C

# melting point (compound: CCOc1nc(NCc2ccc(C)o2)nc(Nc2ccc(O)cc2)n1 ) is 40 to 42 °C

# melting point (compound: Cc1ccc(NS(=O)(=O)c2ccc(-c3cnc4[nH]c(CCC5CCCCC(=S)N5)nc4c3)cc2)c(F)c1 (centres undefined) ) is 271 °C

# melting point (compound: CCn1ncc2c(N(C)Cc3ccccc3)c3ccccc3nc21 ) is 175 to 177 °C

# melting point (compound: C=C(c1ccc(-n2ccnc2)nc1)C(O)(Cn1cncn1)c1ccc(F)cc1F (centres undefined) ) is 145 to 148 °C

# melting point (compound: CCCCn1c(=O)c2c(ncn2S(=O)(=O)CCCC)n(CCCC)c1=O ) is 55 to 57 °C

# melting point (compound: CC(C)c1cc(C(C)C)c2sc3ccccc3c(=O)c2c1 ) is 74 to 76 °C

# melting point (compound: Nc1nc(-c2cc(Cl)ccc2Cl)nc(N2CCOCC2)n1 ) is 189 to 191 °C

# melting point (compound: CCCCc1nc2c(N)nc3ccccc3c2n1CCCC1(C)OCCO1 ) is 169 to 172 °C

# melting point (compound: COc1ccc(S(=O)(=O)Nc2cccnc2Nc2ccc(OC)nc2)cc1 ) is 159 to 160 °C

# melting point (compound: C[C@H]1COC(=O)N1c1nc(-c2ccc(C#N)cc2)cs1 ) is 205 to 207 °C

# melting point (compound: Cc1ccc(S(=O)(=O)c2ccc(Cl)c(NC(=O)N[C@@H](Cc3ccc(NC(=O)c4c(Cl)cccc4Cl)cc3)C(=O)O)c2)cc1 ) is 241 °C

----------
Item-by-item account of melting point

Some compounds with known melting point results, for comparison:
CCCCCCCCCCCCCC(=O)N[C@H](C(=O)O)C(C)C
88 to 89 °C
ClCc1cn2cccc(OCc3ccccc3)c2n1
163 °C
CC(=O)Nc1cccc(C)n1
87 °C

# melting point (compound: CC(=O)c1c(-c2ccc(S(C)=O)cc2)[nH]c(-c2ccncc2)c1C (stereo unspecified) ) is 249 to 250 °C

All values here come from a melting point compilation (Tetko et al.; mined from patent text by program, amines drawn as free bases though some values may be those of a salt).
